Please go through the items and note down their Fluorescence Intensity Geomean (normalized to background).
Target: T1, human CD1b expressed on HEK-293 cells (human, UniProt P29016 18-333; P61769 21-119)
T1 construct: also called HEK - CD1b
Experiment: flow cytometry, HEK-293 cells, 3.16 µg/ml antibody
One number for each entry, in fold over background.

binder="77A (VR11851) (antibody, V domains shown, also called OX77a; antibody 77a) VH: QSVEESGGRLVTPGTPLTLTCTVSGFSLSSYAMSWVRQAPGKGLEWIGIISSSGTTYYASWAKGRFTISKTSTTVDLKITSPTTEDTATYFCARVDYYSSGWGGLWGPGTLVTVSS VL: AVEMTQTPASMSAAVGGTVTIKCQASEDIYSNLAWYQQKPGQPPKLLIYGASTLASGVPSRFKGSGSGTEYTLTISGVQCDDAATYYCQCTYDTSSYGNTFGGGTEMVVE" quantitative_readout=0.9

# return Fluorescence Intensity Geomean (normalized to background) for each item in the list
1. 116 (VR12117) (antibody, V domains shown, also called OX116) VH: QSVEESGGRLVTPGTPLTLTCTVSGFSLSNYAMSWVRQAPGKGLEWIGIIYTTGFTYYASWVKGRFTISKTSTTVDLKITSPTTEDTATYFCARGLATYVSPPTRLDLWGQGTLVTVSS VL: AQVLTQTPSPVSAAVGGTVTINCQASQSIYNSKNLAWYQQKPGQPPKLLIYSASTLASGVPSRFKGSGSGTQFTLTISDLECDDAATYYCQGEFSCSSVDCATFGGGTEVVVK
2. 111 (VR12113) (antibody, V domains shown, also called OX111) VH: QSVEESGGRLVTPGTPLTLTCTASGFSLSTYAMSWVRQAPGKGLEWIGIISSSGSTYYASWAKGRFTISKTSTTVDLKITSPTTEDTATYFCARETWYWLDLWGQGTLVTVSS VL: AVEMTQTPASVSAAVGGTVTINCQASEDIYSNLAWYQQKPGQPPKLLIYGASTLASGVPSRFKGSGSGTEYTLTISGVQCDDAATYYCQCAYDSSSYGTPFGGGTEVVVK
3. 110 (VR12112) (antibody, V domains shown, also called OX110; antibody 110) VH: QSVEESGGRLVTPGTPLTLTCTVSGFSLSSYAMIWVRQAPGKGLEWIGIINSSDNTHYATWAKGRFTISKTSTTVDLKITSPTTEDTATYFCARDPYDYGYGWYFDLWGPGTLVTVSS VL: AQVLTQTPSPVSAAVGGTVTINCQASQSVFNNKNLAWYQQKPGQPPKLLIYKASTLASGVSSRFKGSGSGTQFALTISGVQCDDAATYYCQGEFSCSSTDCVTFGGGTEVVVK

# output
[1, 1.1, 1.1]
